The reported measurements were obtained from patent US20240376214A1.

biological target: T1, c-Met (Homo sapiens, UniProt P08581, DEL964-1010); assay: Functionality of chimeric antibodies, stimulation of proliferation experiment in NCI-H596 cells; type: cell-based
T1 construct: endogenous in cells; host or cells: NCI-H596
metric_name: Functionality

Request: Provide only the value of recorded Functionality for wt-chi-mAb1: wild-type chimeric anti-c-Met IgG1 antibody, VH SEQ ID NO:1, VL SEQ ID NO:2 (antibody, V domains shown, human IgG1 constant regions; HCVR; LCVR) VH: EVQLQQSGPELLKPGASVKMSCKASGYIFTDYFMNWVKQSHGKSLEWIGRVNPKNGDITYNQKFRGKATLTVDKSLTTAYMQLNSLTSEDSAVYFCAYDGYYDGMDFWGQGTSVTVSS VL: ENVLTQSPAIMSASPGEKVTMTCRANSSVSSNFLHWYQQKSGASPKLWISSTSNLAFGVPPRFSGSGSGTSYSLTISSVEAEDAATYYCHQYSGHPFTFGSGTKLEIK
Result: Partial agonist

Request: Provide only the value of recorded Functionality for 41C-chi-mAb1: HC-41C chimeric anti-c-Met IgG1 antibody, VH SEQ ID NO:7, VL SEQ ID NO:2 (antibody, V domains shown, IgG1 constant regions; HCVR - VH H41C; LCVR) VH: EVQLQQSGPELLKPGASVKMSCKASGYIFTDYFMNWVKQSCGKSLEWIGRVNPKNGDITYNQKFRGKATLTVDKSLTTAYMQLNSLTSEDSAVYFCAYDGYYDGMDFWGQGTSVTVSS VL: ENVLTQSPAIMSASPGEKVTMTCRANSSVSSNFLHWYQQKSGASPKLWISSTSNLAFGVPPRFSGSGSGTSYSLTISSVEAEDAATYYCHQYSGHPFTFGSGTKLEIK
Result: Partial agonist
